System: U2OS
Test: Multiplex assay against U2OS
Type: toxicity, cell-based
Conditions: human, 48 h, 10 µM, compound concentration 10 uM
attribute measured: Population Normal (%)
Value expressed in %; do not type the unit.

Give recorded Population Normal (%) with U2OS for the following compound: O=C1NCc2ccc3c(-c4cccc(Cl)c4)c[nH]c3c21
100

Give recorded Population Normal (%) with U2OS for the following compound: O=C1N=C(NCc2cccs2)S/C1=C\c1ccc2ncccc2c1
100

Give recorded Population Normal (%) with U2OS for the following compound: CN1CCC(C(=O)c2cccc(NC(=O)c3c(F)cc(F)cc3F)n2)CC1
96

Give recorded Population Normal (%) with U2OS for the following compound: O=c1cccc2n1C[C@@H]1CNC[C@H]2C1
100
